- System: DCAMKL1;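 note: KINOMEscan scanMAX binding as percent activity remaining versus control; lower means stronger binding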
- Construct: gene DCLK1
- test_context: Compound Concentration (nM):1000
readout_kind: Percent Control (%)

• COc1ccc(COc2ccc(Cc3cnc(N)nc3N)cc2OC)cc1 [GW632580X] = 94
• COc1ccc2[nH]c3c4[nH]c5ccc(OC)cc5c4c4c(c3c2c1)C(=O)NC4=O [GW296115X] = 90
• COc1cccc(-n2ncc3c(N/N=C/c4ccncc4)ncnc32)c1 [GW784752X] = 86
• Cl.O=C(Nc1ccc(Oc2ccc3[nH]c(NC(=O)c4ccco4)nc3c2)cc1)Nc1cc(C(F)(F)F)ccc1F [GW683134A] = 87

Data origin: paper PMC7826789
